# Test system: GST-PPARG-LBD (Homo sapiens, UniProt P37231)
# Construct: A mixture of 5 nM GST-PPARG-LBD; purchased Invitrogen
# Sequence (P37231 238-503 limits assumed): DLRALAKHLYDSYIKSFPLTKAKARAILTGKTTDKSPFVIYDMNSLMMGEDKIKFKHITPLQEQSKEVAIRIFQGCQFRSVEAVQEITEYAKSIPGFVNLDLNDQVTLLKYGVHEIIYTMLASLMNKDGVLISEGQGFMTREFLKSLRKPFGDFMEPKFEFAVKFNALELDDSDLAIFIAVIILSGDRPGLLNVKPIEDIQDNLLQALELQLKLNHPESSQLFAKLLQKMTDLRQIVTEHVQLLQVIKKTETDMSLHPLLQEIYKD
# Experiment: Lanthascreen PPARG competitive binding assay (Invitrogen)
# Condition: Table 3, Lantha 1; read-out: IC50 (nM) Lantha 1
Listing of recorded IC50 by entry.
Write down the value, and be sure its unit follows.

{"Compound": "CCOCCNC(=O)c1ccc2c(c1)c(C)nn2Cc1ccc(-c2ccccc2C(=O)O)cc1 [compound 36]", "IC50": "4420 nM"}
{"Compound": "Cc1nn(Cc2ccc(-c3ccccc3C(=O)O)cc2)c2ccc(C(=O)NC3CCC(C)CC3)cc12 (stereo not drawn) [compound 25]", "IC50": "255 nM"}

Could you now consider this next compound?
Exercise: Name the recorded IC50 for COCCNC(=O)c1ccc2c(c1)c(C(C)C)nn2Cc1ccc(-c2ccccc2C(=O)O)cc1 [compound 46] .
Key: 359 nM

* * *

# Test system: GST-PPARG-LBD (Homo sapiens)
# Construct: A mixture of 5 nM GST-PPARG-LBD; purchased Invitrogen
# Experiment: Lanthascreen PPARG competitive binding assay (Invitrogen)
# Condition: Table 3, Lantha 1; read-out: IC50 (nM) Lantha 1
Please assign NOT MET whenever IC50 is at or above 100 nM, and MET whenever it is below.

Observe how each entry below is paired with its result.
{"Molecule": "COCCCNC(=O)c1ccc2c(c1)c(C)nn2Cc1ccc(-c2ccccc2C(=O)O)cc1", "Category": "NOT MET"}
{"Molecule": "Cc1nn(Cc2ccccc2)c2ccc(C(=O)N[C@@H](C)c3ccc(Br)cc3)cc12", "Category": "NOT MET"}
{"Molecule": "Cc1nn(Cc2ccc(-c3ccccc3C(=O)O)cc2)c2ccc(C(=O)N[C@@H](C)c3ccc(Br)cc3)cc12", "Category": "MET"}
{"Molecule": "Cc1nn(Cc2ccc(-c3ccccc3C(=O)O)cc2)c2ccc(C(=O)N[C@@H](C)c3cccc(C(C)C)c3)cc12", "Category": "MET"}
{"Molecule": "Cc1nn(Cc2ccc(-c3ccccc3C(=O)O)cc2)c2ccc(C(=O)NC3CCCC3)cc12", "Category": "MET"}

Exercise: Hello, is IC50 of the following molecule strictly smaller than 100 nM? Cc1nn(Cc2ccc(-c3ccccc3C(=O)O)cc2)c2ccc(C(=O)NC3CCCCCC3)cc12
Key: NOT MET

Exercise: Hello, is IC50 of the following molecule strictly smaller than 100 nM? Cc1nn(Cc2ccc(-c3ccccc3C(=O)O)cc2)c2ccc(C(=O)NCC3CCC(C)CC3)cc12 (stereo not drawn)
Key: NOT MET

Exercise: Hello, is IC50 of the following molecule strictly smaller than 100 nM? Cc1nn(Cc2ccc(-c3ccccc3C#N)cc2)c2ccc(C(=O)N[C@@H](C)c3ccc(Br)cc3)cc12
Key: MET

Exercise: Hello, is IC50 of the following molecule strictly smaller than 100 nM? CCC(NC(=O)c1ccc2c(c1)c(C(C)C)nn2Cc1ccc(-c2ccccc2C(=O)O)cc1)c1ccccc1 (stereo not drawn)
Key: MET

Exercise: Hello, is IC50 of the following molecule strictly smaller than 100 nM? COCCNC(=O)c1ccc2c(c1)c(C)nn2Cc1ccc(-c2ccccc2C(=O)O)cc1
Key: NOT MET

Exercise: Hello, is IC50 of the following molecule strictly smaller than 100 nM? CCCCNC(=O)c1ccc2c(c1)c(C)nn2Cc1ccc(-c2ccccc2C(=O)O)cc1
Key: MET

Exercise: Hello, is IC50 of the following molecule strictly smaller than 100 nM? CC(C)c1nn(Cc2ccc(-c3ccccc3C(=O)O)cc2)c2ccc(C(=O)N[C@@H](C)c3ccc(Br)cc3)cc12
Key: MET

Exercise: Hello, is IC50 of the following molecule strictly smaller than 100 nM? Cc1nn(Cc2ccc(-c3ccccc3C(=O)O)cc2)c2ccc(C(=O)NC3CCCCC3)cc12
Key: NOT MET

Exercise: Hello, is IC50 of the following molecule strictly smaller than 100 nM? C=C(C)c1nn(Cc2ccc(-c3ccccc3C(=O)O)cc2)c2ccc(C(=O)NCCOC)cc12
Key: NOT MET

Exercise: Hello, is IC50 of the following molecule strictly smaller than 100 nM? CC(C)c1nn(Cc2ccc(-c3ccccc3C(=O)O)cc2)c2ccc(C(=O)NC3CCCC3)cc12
Key: NOT MET
